// values below are reported MIC
Tested on: Streptococcus pneumoniae
Test: Antibacterial activity against erythromycin-resistant Streptococcus pneumoniae A22072 expressing mefA gene after 24 hrs by broth dilution assay
Format: functional
Conditions: A22072, 24 h
Only the number, expressed in µg/mL, is required.

>>> observed_result("CCNC(=O)O[C@H]1[C@H](C)[C@@H](O[C@@H]2O[C@H](C)C[C@H](N(C)C)[C@H]2O)[C@](C)(OC)C[C@@H](C)/C(=N/OCc2ccccc2Cl)[C@H](C)[C@@H](O)[C@](C)(O)[C@@H](CC)OC(=O)[C@@H]1C")
1
>>> observed_result("CC[C@H]1OC(=O)[C@H](C)[C@@H](O)[C@H](C)[C@@H](O[C@@H]2O[C@H](C)C[C@H](N(C)C)[C@H]2O)[C@](C)(OC)C[C@@H](C)/C(=N/OCc2ccccc2Cl)[C@H](C)[C@@H](O)[C@]1(C)O")
4
>>> observed_result("CC[C@H]1OC(=O)[C@H](C)[C@@H](OC(=O)NCc2ccc(C)cc2)[C@H](C)[C@@H](O[C@@H]2O[C@H](C)C[C@H](N(C)C)[C@H]2O)[C@](C)(OC)C[C@@H](C)/C(=N/OCc2ccccc2Cl)[C@H](C)[C@@H](O)[C@]1(C)O")
1

Next:
Req: Find the recorded MIC belonging to CC[C@H]1OC(=O)[C@H](C)[C@@H](OC(=O)NCc2ccco2)[C@H](C)[C@@H](O[C@@H]2O[C@H](C)C[C@H](N(C)C)[C@H]2O)[C@](C)(OC)C[C@@H](C)/C(=N/OCc2ccccc2Cl)[C@H](C)[C@@H](O)[C@]1(C)O and report it.
Resp: 1

---

System: Bacillus subtilis
Experiment: Antibacterial activity against penicillin-susceptible Bacillus subtilis ATCC 9372 after 24 hrs by broth dilution assay
Type: functional
Conditions: ATCC 9372, 24 h
readout_type: MIC (µg/mL)
Only the number, expressed in µg/mL, is required.

Answered examples (2):
>>> observed_result("CC[C@H]1OC(=O)[C@H](C)[C@@H](OC(=O)NCc2ccc(N)cc2)[C@H](C)[C@@H](O[C@@H]2O[C@H](C)C[C@H](N(C)C)[C@H]2O)[C@](C)(OC)C[C@@H](C)/C(=N/OCc2ccccc2Cl)[C@H](C)[C@@H](O)[C@]1(C)O")
4
>>> observed_result("CC[C@H]1OC(=O)[C@H](C)[C@@H](OC(=O)NCC(C)C)[C@H](C)[C@@H](O[C@@H]2O[C@H](C)C[C@H](N(C)C)[C@H]2O)[C@](C)(OC)C[C@@H](C)/C(=N/OCc2ccccc2Cl)[C@H](C)[C@@H](O)[C@]1(C)O")
2

Req: Find the recorded MIC belonging to CC[C@H]1OC(=O)[C@H](C)[C@@H](OC(=O)NCc2cccc(F)c2)[C@H](C)[C@@H](O[C@@H]2O[C@H](C)C[C@H](N(C)C)[C@H]2O)[C@](C)(OC)C[C@@H](C)/C(=N/OCc2ccccc2Cl)[C@H](C)[C@@H](O)[C@]1(C)O and report it.
Resp: 2

Req: Okay, and CC[C@H]1OC(=O)[C@H](C)[C@@H](OC(=O)NCCc2ccc(OC)c(OC)c2)[C@H](C)[C@@H](O[C@@H]2O[C@H](C)C[C@H](N(C)C)[C@H]2O)[C@](C)(OC)C[C@@H](C)/C(=N/OCc2ccccc2Cl)[C@H](C)[C@@H](O)[C@]1(C)O ?
Resp: 4

Req: Okay, and CCCCCCNC(=O)O[C@H]1[C@H](C)[C@@H](O[C@@H]2O[C@H](C)C[C@H](N(C)C)[C@H]2O)[C@](C)(OC)C[C@@H](C)/C(=N/OCc2ccccc2Cl)[C@H](C)[C@@H](O)[C@](C)(O)[C@@H](CC)OC(=O)[C@@H]1C ?
Resp: 2

Req: Okay, and CC[C@H]1OC(=O)[C@H](C)[C@@H](OC(=O)NCc2ccccc2Cl)[C@H](C)[C@@H](O[C@@H]2O[C@H](C)C[C@H](N(C)C)[C@H]2O)[C@](C)(OC)C[C@@H](C)/C(=N/OCc2ccccc2Cl)[C@H](C)[C@@H](O)[C@]1(C)O ?
Resp: 2

Req: Okay, and CCNC(=O)O[C@H]1[C@H](C)[C@@H](O[C@@H]2O[C@H](C)C[C@H](N(C)C)[C@H]2O)[C@](C)(OC)C[C@@H](C)/C(=N/OCc2ccccc2Cl)[C@H](C)[C@@H](O)[C@](C)(O)[C@@H](CC)OC(=O)[C@@H]1C ?
Resp: 8

Req: Okay, and CC[C@H]1OC(=O)[C@H](C)[C@@H](OC(=O)NCc2ccco2)[C@H](C)[C@@H](O[C@@H]2O[C@H](C)C[C@H](N(C)C)[C@H]2O)[C@](C)(OC)C[C@@H](C)/C(=N/OCc2ccccc2Cl)[C@H](C)[C@@H](O)[C@]1(C)O ?
Resp: 4

---

Tested on: Bacillus subtilis
Experiment: Antibacterial activity against penicillin-susceptible Bacillus subtilis ATCC 9372 after 24 hrs by broth dilution assay
Format: functional
Settings: ATCC 9372, 24 h
readout_type: MIC (µg/mL)
Only the number, expressed in µg/mL, is required.

Answered examples (3):
>>> observed_result("CC[C@H]1OC(=O)[C@H](C)[C@@H](OC(=O)NCc2ccccc2OC)[C@H](C)[C@@H](O[C@@H]2O[C@H](C)C[C@H](N(C)C)[C@H]2O)[C@](C)(OC)C[C@@H](C)/C(=N/OCc2ccccc2Cl)[C@H](C)[C@@H](O)[C@]1(C)O")
4
>>> observed_result("CC[C@H]1OC(=O)[C@H](C)[C@@H](OC(=O)NCc2ccccc2)[C@H](C)[C@@H](O[C@@H]2O[C@H](C)C[C@H](N(C)C)[C@H]2O)[C@](C)(OC)C[C@@H](C)/C(=N/OCc2ccccc2Cl)[C@H](C)[C@@H](O)[C@]1(C)O")
2
>>> observed_result("CCCNC(=O)O[C@H]1[C@H](C)[C@@H](O[C@@H]2O[C@H](C)C[C@H](N(C)C)[C@H]2O)[C@](C)(OC)C[C@@H](C)/C(=N/OCc2ccccc2Cl)[C@H](C)[C@@H](O)[C@](C)(O)[C@@H](CC)OC(=O)[C@@H]1C")
2

Next:
Req: Find the recorded MIC belonging to CC[C@H]1OC(=O)[C@H](C)[C@@H](OC(=O)NCc2ccc(C)cc2)[C@H](C)[C@@H](O[C@@H]2O[C@H](C)C[C@H](N(C)C)[C@H]2O)[C@](C)(OC)C[C@@H](C)/C(=N/OCc2ccccc2Cl)[C@H](C)[C@@H](O)[C@]1(C)O and report it.
Resp: 2

---

Tested on: Streptococcus pneumoniae
Experiment: Antibacterial activity against erythromycin-resistant Streptococcus pneumoniae AB11 expressing ermB and mefA genes after 24 hrs by broth dilution assay
Format: functional
Details: AB11, 24 h
readout_type: MIC

>>> observed_result("CC[C@H]1OC(=O)[C@H](C)[C@@H](OC(=O)NCc2ccc(OC)cc2)[C@H](C)[C@@H](O[C@@H]2O[C@H](C)C[C@H](N(C)C)[C@H]2O)[C@](C)(OC)C[C@@H](C)/C(=N/OCc2ccccc2Cl)[C@H](C)[C@@H](O)[C@]1(C)O")
"128 µg/mL"

Req: Find the recorded MIC belonging to CC[C@H]1OC(=O)[C@H](C)[C@@H](OC(=O)NCCc2cccc(OC)c2)[C@H](C)[C@@H](O[C@@H]2O[C@H](C)C[C@H](N(C)C)[C@H]2O)[C@](C)(OC)C[C@@H](C)/C(=N/OCc2ccccc2Cl)[C@H](C)[C@@H](O)[C@]1(C)O and report it.
Resp: 128 µg/mL

---

// values below are reported MIC
Test system: Streptococcus pneumoniae
Experiment: Antibacterial activity against erythromycin-resistant Streptococcus pneumoniae A22072 expressing mefA gene after 24 hrs by broth dilution assay
Assay type: functional
Settings: A22072, 24 h
Only the number, expressed in µg/mL, is required.

Answered examples (5):
>>> observed_result("CCCCCCNC(=O)O[C@H]1[C@H](C)[C@@H](O[C@@H]2O[C@H](C)C[C@H](N(C)C)[C@H]2O)[C@](C)(OC)C[C@@H](C)/C(=N/OCc2ccccc2Cl)[C@H](C)[C@@H](O)[C@](C)(O)[C@@H](CC)OC(=O)[C@@H]1C")
1
>>> observed_result("CC[C@H]1OC(=O)[C@H](C)[C@@H](OC(=O)NCCc2ccccc2Cl)[C@H](C)[C@@H](O[C@@H]2O[C@H](C)C[C@H](N(C)C)[C@H]2O)[C@](C)(OC)C[C@@H](C)/C(=N/OCc2ccccc2Cl)[C@H](C)[C@@H](O)[C@]1(C)O")
1
>>> observed_result("CC[C@H]1OC(=O)[C@H](C)[C@@H](OC(=O)NCc2ccc(OC)cc2)[C@H](C)[C@@H](O[C@@H]2O[C@H](C)C[C@H](N(C)C)[C@H]2O)[C@](C)(OC)C[C@@H](C)/C(=N/OCc2ccccc2Cl)[C@H](C)[C@@H](O)[C@]1(C)O")
2
>>> observed_result("CC[C@H]1OC(=O)[C@H](C)[C@@H](OC(=O)NCCc2cccc(OC)c2)[C@H](C)[C@@H](O[C@@H]2O[C@H](C)C[C@H](N(C)C)[C@H]2O)[C@](C)(OC)C[C@@H](C)/C(=N/OCc2ccccc2Cl)[C@H](C)[C@@H](O)[C@]1(C)O")
1
>>> observed_result("CC[C@H]1OC(=O)[C@H](C)[C@@H](O[C@H]2C[C@@](C)(OC)[C@@H](O)[C@H](C)O2)[C@H](C)[C@@H](O[C@@H]2O[C@H](C)C[C@H](N(C)C)[C@H]2O)[C@](C)(OC)C[C@@H](C)C(=O)[C@H](C)[C@@H](O)[C@]1(C)O [CLARITHROMYCIN]")
2

Req: Find the recorded MIC belonging to CC[C@H]1OC(=O)[C@H](C)[C@@H](OC(=O)NCc2ccccc2)[C@H](C)[C@@H](O[C@@H]2O[C@H](C)C[C@H](N(C)C)[C@H]2O)[C@](C)(OC)C[C@@H](C)/C(=N/OCc2ccccc2Cl)[C@H](C)[C@@H](O)[C@]1(C)O and report it.
Resp: 0.5

Req: Okay, and CC[C@H]1OC(=O)[C@H](C)[C@@H](OC(=O)NCc2ccccc2OC)[C@H](C)[C@@H](O[C@@H]2O[C@H](C)C[C@H](N(C)C)[C@H]2O)[C@](C)(OC)C[C@@H](C)/C(=N/OCc2ccccc2Cl)[C@H](C)[C@@H](O)[C@]1(C)O ?
Resp: 1

The measured values listed here are drawn from ChEMBL document CHEMBL4261593.
